- Test system: MOLT-4 cells
- Assay Protocol: MOLT-4 cell viability
- Assay type: cell-based
- Run Parameters: Homo sapiens, MOLT-4, 48 h, read-out: IC50 (MOLT-4 cells)
Each record here notes measured IC50.
Quantity Kind: IC50 (nM)

CN(CCOCCOCCOCCCc1cccc2c1CN(C1CCC(=O)NC1=O)C2=O)CC[C@H](CSc1ccccc1)Nc1ccc(S(=O)(=O)NC(=O)c2ccc(N3CCN(CC4=C(c5ccc(Cl)cc5)CCC(C)(C)C4)CC3)cc2)cc1S(=O)(=O)C(F)(F)F (stereo partly shown) = 4.5
CN(CCOCCOCCN1CCC(CCc2cccc3c2C(=O)N(C2CCC(=O)NC2=O)C3=O)CC1)CC[C@H](CSc1ccccc1)Nc1ccc(S(=O)(=O)NC(=O)c2ccc(N3CCN(CC4=C(c5ccc(Cl)cc5)CCC(C)(C)C4)CC3)cc2)cc1S(=O)(=O)C(F)(F)F (stereo partly shown) = 45.5
CC1(C)CCC(c2ccc(Cl)cc2)=C(CN2CCN(c3ccc(C(=O)NS(=O)(=O)c4ccc(N[C@H](CCN(CCOCCOCCOCCNc5cccc6c5C(=O)N(C5CCC(=O)NC5=O)C6=O)C5COC5)CSc5ccccc5)c(S(=O)(=O)C(F)(F)F)c4)cc3)CC2)C1 (stereo partly shown) = 397
CN(CCOCCOCCOCCCc1cccc2c1C(=O)N(C1CCC(=O)NC1=O)C2=O)CC[C@H](CSc1ccccc1)Nc1ccc(S(=O)(=O)NC(=O)c2ccc(N3CCN(CC4=C(c5ccc(Cl)cc5)CCC(C)(C)C4)CC3)cc2)cc1S(=O)(=O)C(F)(F)F (stereo partly shown) = 6.2

---

- System: MOLT-4 cells
- Assay Protocol: MOLT-4 cell viability
- Format: cell-based
- Run Parameters: Homo sapiens, MOLT-4, 48 h, read-out: IC50 (MOLT-4 cells)
pIC50: −log10 of the molar value.
Tick Condition met if pIC50 is 8 or greater. Tick Condition not met if pIC50 is less than 8.

CN(CCOCCOCCN1CCC(C#Cc2cccc3c2C(=O)N(C2CCC(=O)NC2=O)C3=O)CC1)CC[C@H](CSc1ccccc1)Nc1ccc(S(=O)(=O)NC(=O)c2ccc(N3CCN(CC4=C(c5ccc(Cl)cc5)CCC(C)(C)C4)CC3)cc2)cc1S(=O)(=O)C(F)(F)F (stereo partly drawn) [2e] = Condition not met
CN(CCOCCOCCOCCCc1ccc2c(c1)CN(C1CCC(=O)NC1=O)C2=O)CC[C@H](CSc1ccccc1)Nc1ccc(S(=O)(=O)NC(=O)c2ccc(N3CCN(CC4=C(c5ccc(Cl)cc5)CCC(C)(C)C4)CC3)cc2)cc1S(=O)(=O)C(F)(F)F (stereo partly drawn) [PZ671] = Condition met
CC1(C)CCC(c2ccc(Cl)cc2)=C(CN2CCN(c3ccc(C(=O)NS(=O)(=O)c4ccc(N[C@H](CCNCCOCCOCCOCCNc5cccc6c5C(=O)N(C5CCC(=O)NC5=O)C6=O)CSc5ccccc5)c(S(=O)(=O)C(F)(F)F)c4)cc3)CC2)C1 (stereo partly drawn) [1a] = Condition not met
CN(CCOCCOCCOCC#Cc1ccc2c(c1)CN(C1CCC(=O)NC1=O)C2=O)CC[C@H](CSc1ccccc1)Nc1ccc(S(=O)(=O)NC(=O)c2ccc(N3CCN(CC4=C(c5ccc(Cl)cc5)CCC(C)(C)C4)CC3)cc2)cc1S(=O)(=O)C(F)(F)F (stereo partly drawn) [5a] = Condition met
